Every entry's value here was drawn from patent US12384754B2.

experiment: Comparative bioavailability assay in healthy volunteers; assay type: in vivo; details: male, human, plasma, po, 5 mg, Fasting; single oral dose, Example 1 5 mg, Example 2 7.3 mg; read-out: Cmax, geometric mean
experimental-endpoint: Cmax (ng/mL)
Express it in ng/mL; write the number only.

Can you share its Cmax? I mean this compound: N#Cc1sc(NC(=O)[C@H]2CC[C@@H](C(=O)O)C2)nc1-c1ccccc1
176

* * *

assay: Hygroscopicity study by DVS (Dynamic Vapour Sorption); format: physicochemical; details: DVS, 25° C., 35% RH
experimental-endpoint: moisture content, 35% RH

Can you share its moisture content, 35% RH? I mean this compound: N#Cc1sc(NC(=O)[C@H]2CC[C@@H](C(=O)O)C2)nc1-c1ccccc1.O=C(O)c1cc(O)ccc1O
0.0175

// query: N#Cc1sc(NC(=O)[C@H]2CC[C@@H](C(=O)O)C2)nc1-c1ccccc1.NC(=O)c1cccnc1
0.066

// query: N#Cc1sc(NC(=O)[C@H]2CC[C@@H](C(=O)O)C2)nc1-c1ccccc1.NC(N)=O
0.0339

// query: N#Cc1sc(NC(=O)[C@H]2CC[C@@H](C(=O)O)C2)nc1-c1ccccc1
0.1842

* * *

assay: Hygroscopicity study by DVS (Dynamic Vapour Sorption); type: physicochemical; conditions: DVS, 25° C., 75% RH
experimental-endpoint: moisture content, 75% RH

# count of solved cases: 3
N#Cc1sc(NC(=O)[C@H]2CC[C@@H](C(=O)O)C2)nc1-c1ccccc1.NC(N)=O [Example 3]; 0.0895
N#Cc1sc(NC(=O)[C@H]2CC[C@@H](C(=O)O)C2)nc1-c1ccccc1.NC(=O)c1cccnc1 [Example 4]; 0.4584
N#Cc1sc(NC(=O)[C@H]2CC[C@@H](C(=O)O)C2)nc1-c1ccccc1.O=C(O)c1cc(O)ccc1O [Example 2]; 0.1035

Can you share its moisture content, 75% RH? I mean this molecule: N#Cc1sc(NC(=O)[C@H]2CC[C@@H](C(=O)O)C2)nc1-c1ccccc1 [Example 1]
0.4369

* * *

assay: Hygroscopicity study by DVS (Dynamic Vapour Sorption); assay type: physicochemical; settings: DVS, 25° C., 15% RH
experimental-endpoint: moisture content, 15% RH
Reply with the value as a number alone.

Can you share its moisture content, 15% RH? I mean this molecule: N#Cc1sc(NC(=O)[C@H]2CC[C@@H](C(=O)O)C2)nc1-c1ccccc1.NC(N)=O [Example 3]
0.015

// query: N#Cc1sc(NC(=O)[C@H]2CC[C@@H](C(=O)O)C2)nc1-c1ccccc1 [Example 1]
0.0168

// query: N#Cc1sc(NC(=O)[C@H]2CC[C@@H](C(=O)O)C2)nc1-c1ccccc1.NC(=O)c1cccnc1 [Example 4]
0.029

// query: N#Cc1sc(NC(=O)[C@H]2CC[C@@H](C(=O)O)C2)nc1-c1ccccc1.O=C(O)c1cc(O)ccc1O [Example 2]
0.0079
